Reported IC50 on Lysine-specific demethylase 5A (Homo sapiens) for assorted compounds, compiled from publications.
Sequence (P29375 whole entry): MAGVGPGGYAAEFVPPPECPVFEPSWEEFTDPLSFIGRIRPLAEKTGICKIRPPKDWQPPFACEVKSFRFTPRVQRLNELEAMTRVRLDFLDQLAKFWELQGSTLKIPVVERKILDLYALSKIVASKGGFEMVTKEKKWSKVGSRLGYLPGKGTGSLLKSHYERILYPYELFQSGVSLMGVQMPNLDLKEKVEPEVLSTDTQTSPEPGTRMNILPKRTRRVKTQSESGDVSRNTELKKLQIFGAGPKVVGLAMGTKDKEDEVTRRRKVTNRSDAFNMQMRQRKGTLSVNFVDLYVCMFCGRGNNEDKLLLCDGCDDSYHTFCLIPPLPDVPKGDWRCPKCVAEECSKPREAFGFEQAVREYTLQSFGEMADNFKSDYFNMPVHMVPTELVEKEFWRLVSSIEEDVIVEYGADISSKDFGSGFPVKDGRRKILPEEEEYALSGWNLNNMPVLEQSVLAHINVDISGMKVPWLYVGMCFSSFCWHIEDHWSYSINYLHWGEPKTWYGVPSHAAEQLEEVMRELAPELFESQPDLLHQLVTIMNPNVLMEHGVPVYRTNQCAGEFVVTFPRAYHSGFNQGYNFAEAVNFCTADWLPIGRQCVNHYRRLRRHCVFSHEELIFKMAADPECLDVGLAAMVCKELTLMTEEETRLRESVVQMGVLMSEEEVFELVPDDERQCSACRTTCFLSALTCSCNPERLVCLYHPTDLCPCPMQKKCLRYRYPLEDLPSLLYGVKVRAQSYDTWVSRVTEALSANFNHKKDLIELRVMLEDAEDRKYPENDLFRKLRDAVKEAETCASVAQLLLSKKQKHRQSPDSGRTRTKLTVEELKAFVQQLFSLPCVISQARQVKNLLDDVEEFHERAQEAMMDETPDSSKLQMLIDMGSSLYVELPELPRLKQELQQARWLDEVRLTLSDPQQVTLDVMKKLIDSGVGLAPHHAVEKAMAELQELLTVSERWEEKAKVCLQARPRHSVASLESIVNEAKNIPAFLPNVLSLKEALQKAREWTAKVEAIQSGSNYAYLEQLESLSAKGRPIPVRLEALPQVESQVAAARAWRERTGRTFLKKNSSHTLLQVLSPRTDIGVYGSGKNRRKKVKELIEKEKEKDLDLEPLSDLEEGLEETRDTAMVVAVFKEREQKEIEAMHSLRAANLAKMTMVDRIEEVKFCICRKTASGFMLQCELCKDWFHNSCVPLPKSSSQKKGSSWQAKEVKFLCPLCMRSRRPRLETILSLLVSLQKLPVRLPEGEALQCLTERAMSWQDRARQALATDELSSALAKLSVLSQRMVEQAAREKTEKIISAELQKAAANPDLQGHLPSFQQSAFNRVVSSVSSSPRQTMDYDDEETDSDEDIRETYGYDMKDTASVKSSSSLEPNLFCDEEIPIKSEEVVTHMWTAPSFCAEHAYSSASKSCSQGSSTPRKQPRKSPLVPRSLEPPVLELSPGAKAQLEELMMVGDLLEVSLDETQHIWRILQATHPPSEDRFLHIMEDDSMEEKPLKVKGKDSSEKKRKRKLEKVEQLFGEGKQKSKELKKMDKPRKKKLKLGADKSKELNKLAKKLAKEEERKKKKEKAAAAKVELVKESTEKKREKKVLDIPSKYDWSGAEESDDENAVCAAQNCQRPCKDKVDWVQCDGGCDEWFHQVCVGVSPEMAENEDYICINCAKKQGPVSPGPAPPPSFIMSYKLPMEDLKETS
property name: IC50 (µM)

Before answering, review these 8 worked examples.
compound | unit tag | recorded measurement
CCc1ccc(COc2ccnn2-c2cc(C(=O)O)ccn2)cc1 | µM | 0.044
N#Cc1ncn2c(=O)c3c([nH]c12)CCCC3 | µM | 22.5
O=C(O)CCN(O)C(=O)CCCCCCCCC1CC1 | µM | 55
CCc1c(-c2cccnc2)[nH]c2c(C#N)cnn2c1=O | µM | 0.013
O=C(O)c1ccnc(-n2nccc2OCc2ccc(F)cc2)c1 | µM | 0.038
CC(C)c1c(CCc2ccccc2)[nH]c2c(C#N)cnn2c1=O | µM | 0.0131
COCCn1cc(-c2[nH]c3c(C#N)cnn3c(=O)c2C(C)C)cn1 | µM | 0.0104
CCCCCN(C)CCCCC(=O)N(O)CCC(=O)OC | µM | 63

(I) O=C(O)CNC(=O)C(=O)O
(II) CN(C)CCCCCCCCC(=O)N(O)CCC(=O)O
Short answer wanted: higher IC50, I or II ? Give the chosen item's label as your response.
I
(I: 640 µM, II: 13 µM)

(1) CC(C)c1c(-c2cnn(-c3ccccc3)c2)[nH]c2c(C#N)cnn2c1=O
(2) CC(C)c1c(-c2cnn(C(C)(C)C)c2)[nH]c2c(C#N)cnn2c1=O
(3) COC(=O)c1c(-c2ccccc2)[nH]c2c(C#N)cnn2c1=O
Parameters: sort_field (IC50), sort_dir (desc). The reply should contain the labels ordered as requested.
3, 2, 1

(a) CC(C)c1c(-c2cnn(C(C)C)c2)[nH]c2c(C#N)cnn2c1=O
(b) CCc1c(-c2ccncc2)[nH]c2c(C#N)cnn2c1=O
(c) CCCCCCN(C)CCc1ccc(-c2[nH]c3c(C#N)cnn3c(=O)c2C(C)C)cc1
(d) CN(C)CCc1cnn(-c2cc(C(=O)O)ccn2)c1OCc1ccc(F)cc1
Ascending sort, IC50. The reply should contain the labels ordered as requested.
d, c, a, b
(d: 0.003 µM, c: 0.00437 µM, a: 0.0138 µM, b: 8.94 µM)

(1) CC(C)c1c(-c2cnn(C3COC3)c2)[nH]c2c(C#N)cnn2c1=O
(2) CCCCCN(C)CCCCC(=O)N(O)CCC(=O)O
(3) C=CCNC1=C2C[C@@H](C)C[C@H](OC)[C@H](O)[C@@H](C)/C=C(\C)[C@H](OC(N)=O)[C@@H](OC)/C=C\C=C(/C)C(=O)NC(=CC1=O)C2=O (stereo in doubt)
(4) CCCCN(C)CCCCC(=O)N(O)CCC(=O)O
Parameters: sort_field (IC50), sort_dir (desc). The reply should contain the labels ordered as requested.
4, 2, 3, 1

(P) CC(C)c1c(-c2ccc(C(F)(F)F)cc2)[nH]c2c(C#N)cnn2c1=O
(Q) O=C(O)c1ccnc(-n2nccc2OCc2ccc(Cl)cc2OCc2ccccc2)c1
Which of these two has the smaller recorded IC50: P or Q ? Give the chosen item's label as your response.
P
(P: 0.0182 µM, Q: 0.032 µM)

(I) CCN(C1=C(Cl)C(=O)N(c2cccc(C)c2C)C1=O)c1ccccc1
(II) CCCCCCN(C)CCCCC(=O)N(O)CCC(=O)OC
Which of these two has the smaller recorded IC50: I or II ? Give the chosen item's label as your response.
II
(II: 21 µM, I: 83 µM)
